Assay: Half life in mouse at 2 mg/kg, IM
Type: ADME, organism-based
Details: in vivo
outcome_measure: half-life

Qu. Returns the measured half-life for the input molecule. Input: Nc1ncnc2c([C@@H]3N[C@H](CO)[C@@H](O)[C@H]3O)c[nH]c12
Ans. < 5 min

====

Target: Replicase polyprotein 1ab (Severe acute respiratory syndrome coronavirus 2)
Test: Inhibition of C-terminal 6-His-tagged recombinant SARS CoV-2 3CL protease expressed in Escherichia coli BL21-Gold DE3 cells by FRET assay
outcome_measure: IC50 (µM)
// units = µM; emit number, no label

Qu. Returns the measured IC50 for the input compound. Input: Nc1cccn([C@@H](CC2CC2)C(=O)N[C@@H](C[C@@H]2CCNC2=O)C(=O)C(=O)NCc2ccccc2)c1=O
Ans. 1.34
